Data origin, for the record: BindingDB's records for doi:10.1016/j.ejmech.2007.04.019

Molecular target: Prostaglandin G/H synthase 2 (Homo sapiens, UniProt P35354)
Sequence (P35354 whole entry): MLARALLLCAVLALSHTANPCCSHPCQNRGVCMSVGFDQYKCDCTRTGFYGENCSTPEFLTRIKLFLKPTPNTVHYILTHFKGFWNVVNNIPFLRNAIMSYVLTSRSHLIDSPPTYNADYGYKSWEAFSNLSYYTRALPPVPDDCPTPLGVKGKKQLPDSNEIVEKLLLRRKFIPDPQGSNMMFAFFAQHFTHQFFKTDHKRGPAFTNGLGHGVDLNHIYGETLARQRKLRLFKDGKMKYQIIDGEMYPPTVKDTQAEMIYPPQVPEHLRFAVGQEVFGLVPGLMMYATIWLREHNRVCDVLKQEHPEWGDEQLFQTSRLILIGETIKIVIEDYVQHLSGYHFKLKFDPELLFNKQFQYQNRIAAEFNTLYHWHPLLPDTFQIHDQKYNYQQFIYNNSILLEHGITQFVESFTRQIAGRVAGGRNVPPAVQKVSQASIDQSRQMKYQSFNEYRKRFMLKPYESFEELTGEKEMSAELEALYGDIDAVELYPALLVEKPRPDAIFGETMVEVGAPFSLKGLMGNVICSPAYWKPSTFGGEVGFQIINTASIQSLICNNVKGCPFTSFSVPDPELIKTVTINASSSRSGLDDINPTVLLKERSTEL

compound	IC50, µM
C=C[C@@H]1[C@@H](O)C[C@@H]2[C@]3(CC[C@]4(C)[C@@H]([C@H](C)CCC(OO)C(=C)C)CC[C@@]24C)C[C@]13CCC(=O)OC (stereo partly specified)	4.7
